Please go through the items and note down their melting point.

compound	melting point
CCc1cc(C(=O)N2CCCC[C@H]2C)nc2cc(-c3ccc(C(N)=O)cc3)nn12 [Compound A27]	160 to 165 °C
CCc1cc(C(=O)N2CCn3cccc3C2C)nc2cc(-c3ccc(C(=O)O)cc3F)nn12 (stereo not shown) [Compound K9]	155 to 160 °C
CCc1cc(C(=O)N2CCCCCC2C)nc2cc(-c3cccs3)nn12 (stereo not shown) [Compound A1]	110 to 120 °C

State the recorded melting point for every item in the following list.
1. CCc1cc(C(=O)N2CCCCCC2C)nc2cc(-c3ccc(NC(=O)C4CC4)cc3)nn12 (stereo not shown) [Compound E14]
2. CCc1cc(C(=O)N2CCCCCC2C)nc2cc(-c3ccc4nc(C)ccc4c3)nn12 (stereo not shown) [Compound A12]
3. CC1CCCCCN1C(=O)c1cc(N2CCCCC2)n2nc(-c3ccc(NC(=O)C4CC4)cc3)cc2n1 (stereo not shown) [Compound E18]
4. CNc1cc(C(=O)N2CCCCCC2C)nc2cc(-c3ccc(C#N)cc3F)nn12 (stereo not shown) [Compound H1]

265 to 270 °C
195 to 200 °C
299 to 300 °C
219 to 220 °C

====

- experiment: Cytotoxicity in HeLa cells, ATP content measured with the ATPlite kit
- Type: cell-based
- conditions: human, TOX HELA pCC50
quantity.measured: CC50 at 3 days

compound	result.value
CCc1cc(C(=O)N2CCCCC[C@H]2C)nc2cc(-c3ccc(C4CC=C(C(=O)O)CC4)cc3F)nn12 (mixture of isomers) [Compound F69]	> 25.1 µM
CCc1cc(C(=O)N2CCCCCCC2C)nc2cc(-c3ccc(NS(C)(=O)=O)cc3F)nn12 (centres unmarked) [Compound D3]	> 25.1 µM
C=CCC(=O)Nc1ccc(-c2cc3nc(C(=O)N4CCCCCC4C)cc(CC)n3n2)c(F)c1 (centres unmarked) [Compound E5]	> 25.1 µM
CCc1cc(C(=O)N2Cc3ccccc3CC2C)nc2cc(-c3ccc(C(=O)O)cc3F)nn12 (centres unmarked) [Compound K3]	> 25.1 µM

Record CC50 at 3 days for all entries; do not skip any.
1. C[C@@H]1CCCCCN1C(=O)c1cc(C2(C)CC2)n2nc(-c3ccc4cc(C(=O)O)c(=O)oc4c3F)cc2n1 (racemic) [Compound F49]
2. CC1c2ccsc2CCN1C(=O)c1cc(C2(C)CC2)n2nc(-c3ccc(-n4cc(C(=O)O)cn4)cc3F)cc2n1 (racemic) [Compound W39]
3. CCc1cc(C(=O)N2CCCCC[C@H]2C)nc2cc(-c3ccc(N4CC[C@H](C(=O)O)C4)cc3F)nn12 [Compound W7]
4. CCc1cc(C(=O)N2CCCCCC2C)nc2cc(-c3ccc(-c4cnn(C)c4)cc3F)nn12 (centres unmarked) [Compound F9]

57.5 µM
55 µM
70.8 µM
> 25.1 µM

Return reported CC50 at 3 days values for all items listed beneath this line.
1. CCc1cc(C(=O)N2CCc3ccccc3[C@H]2C)nc2cc(-c3ccc(-n4cc(C(=O)O)cn4)cc3F)nn12 [Compound W27]
2. CCc1cc(C(=O)N2CCCCCC2C)nc2cc(-c3ccc(NC(=O)CCC(=O)O)cc3F)nn12 (centres unmarked) [Compound E24]
3. CCc1cc(C(=O)N2CCc3c([nH]c4ccccc34)C2C)nc2cc(-c3ccc(C(N)=O)cc3F)nn12 (centres unmarked) [Compound I38]

1. 46.8 µM
2. > 25.1 µM
3. > 25.1 µM

These measurements were taken from patent US11084826B2.
